- test description: Dose normalized AUC in mouse at 3 mg/kg, po
- Assay type: ADME, organism-based
- Design: unit not given here
- recorded conditions: in vivo
Binning scheme for AUC/dose: bottom end (below 80), midrange (80 to below 300), top end (300 or more)

                                   molecule  discrete_label
0  CC(C)(O)[C@H]1C[C@H](NC(=O)c2cnc3cc(C4CC4)ncc3c2)C1      bottom end
1  CC(C)(O)[C@H]1CC[C@H](NC(=O)c2cnc3cc(N4CC(F)C4)ncc3c2)CC1      bottom end
2  CC(C)(O)[C@H]1C[C@H](NC(=O)c2cnc3nc(C4CC4)ccc3c2)C1      bottom end
3  CC(C)(O)[C@H]1CC[C@H](NC(=O)c2cnc3nc(C4CC4)ccc3c2)CC1         top end
4  CC(C)(O)[C@H]1C[C@H](NC(=O)c2cnc3nc(C4CC4)c(Cl)cc3c2)C1      bottom end
5  COc1ccc2cc(C(=O)N[C@H]3CC[C@H](C(C)(C)O)CC3)cnc2n1      bottom end
6  CC(C)(O)[C@H]1CC[C@H](NC(=O)c2cnc3nc(N4CCC4)ncc3c2)CC1      bottom end
7  C[C@]1(O)C[C@@H](NC(=O)c2cnc3nc(C4CC4)c(Cl)cc3c2)C1        midrange
8  O=C(N[C@H]1CC[C@H](N2CC(F)C2)CC1)c1cnc2cc(C3CC3)ncc2c1         top end
9  O=C(N[C@H]1CC[C@H](N[C@H](CO)C(F)(F)F)CC1)c1cnc2cc(C3CC3)ncc2c1         top end

Which class is correct for the following molecule? `C[C@H]1CCN1c1nc2ncc(C(=O)N[C@H]3CCNC3=O)cc2cc1Cl`
midrange

# bin lookup: classify `CC(C)(O)[C@H]1CC[C@H](NC(=O)c2cnc3nc(N4CCC4)ccc3c2)CC1` by its AUC/dose
bottom end

###

- measured target: Prostaglandin-H2 D-isomerase (Homo sapiens)
- Sequence (P41222 whole entry): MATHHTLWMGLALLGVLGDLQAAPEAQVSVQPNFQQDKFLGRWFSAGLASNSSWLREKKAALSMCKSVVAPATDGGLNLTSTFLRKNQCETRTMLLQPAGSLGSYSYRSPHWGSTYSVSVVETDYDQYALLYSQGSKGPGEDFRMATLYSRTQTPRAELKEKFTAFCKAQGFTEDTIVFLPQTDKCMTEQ
pIC50: −log10 of the molar value.
metric: pIC50

# lookup: pIC50 of `CC(C)(O)[C@H]1CC[C@H](NC(=O)c2cnc3nc(C4CC4)ccc3c2)CC1`
< 5.00

###

- test description: Half life in mouse liver microsomes pretreated for 5 mins followed by incubation with NADP for 30 secs and measured upto 45 mins by LC-MS/MS analysis
- Assay type: ADME, Microsome
- recorded conditions: time 3030 sec
Please provide measured half-life for the entries that follow.

Worked cases, answers included:
In [3]: df
Out[3]:
                                   molecule  recorded_result
0  C[C@H]1CCN1c1nc2ncc(C(=O)N[C@H]3CC[C@](C)(O)CC3)cc2cc1Cl            > 3 h
1  CC(C)(O)[C@H]1C[C@H](NC(=O)c2cnc3cc(C4CC4)ncc3c2)C1            > 3 h
2  C[C@]1(O)C[C@H](NC(=O)c2cnc3nc(C4CC4)c(Cl)cc3c2)C1            > 3 h
3  CC(C)(O)[C@]12C[C@@](NC(=O)c3cnc4nc(C5CC5)ccc4c3)(C1)C2            > 3 h

Consider the compound shown here: `O=C(N[C@H]1CCNC1=O)c1cnc2cc(C3CC3)ncc2c1` What is its recorded half-life?
2.45 h

###

- test description: Volume of distribution at steady state in dog at 0.5 mg/kg, iv
- Format: ADME, organism-based, Canis lupus familiaris
- recorded conditions: in vivo, read-out: Vdss
metric: Vd (L/kg)
Answers are plain numbers, in L/kg.

// Vd lookup, key: `CC(C)(O)[C@H]1CC[C@H](NC(=O)c2cnc3nc(C4CC4)ccc3c2)CC1`
1

###

Provide the reported Kp of each item.
- test description: Ratio of drug level in brain to blood in mouse at 1 mg/kg, iv
- Assay type: ADME, organism-based
- recorded conditions: read-out: BBR

>>> print(df.to_string())
                                   molecule  metric  recorded_result
0  CC(C)(O)[C@H]1CC[C@H](NC(=O)c2cnc3cc(C4CC4)ncc3c2)CC1      Kp             0.17
1  CC(C)(O)[C@H]1CC[C@H](NC(=O)c2cnc3nc(C4CC4)ccc3c2)CC1      Kp             0.06

For the next question, use this compound.
What measured Kp goes with `CC(C)(O)[C@H]1CC[C@H](NC(=O)c2cnc3cc(OC(F)F)ccc3c2)CC1` ?
0.59

###

- test description: Ratio of drug level in muscle to plasma in C57BL/6N mouse administered orally for 10 mins prior to unilateral eccentric contraction and QD for 43 days thereafter
- Format: toxicity, cell-free, Muscle tissue/plasma
- recorded conditions: route po, time 43 day
metric: Kp at 1032 h
Give bare numbers.

Please look up its Kp at 1032 h: `CC(C)(O)[C@H]1CC[C@H](NC(=O)c2cnc3nc(C4CC4)ccc3c2)CC1`
0.56

###

- test description: Solubility of the compound in FaSSIF at pH 6.5 measured after 4 hrs by HPLC-UV analysis
- Type: ADME
Classify as follows. Reported solubility at 4 h greater than or equal to 400 µg/mL: label 1. Reported solubility at 4 h below: label 0.

Known results for compounds:
In [3]: df
Out[3]:
                                   compound  discrete_label
0  CC(C)(O)[C@H]1CC[C@H](NC(=O)c2cnc3cc(N4CCC4)ncc3c2)CC1         label 0
1  C[C@]1(O)C[C@@H](NC(=O)c2cnc3cc(N4CCC4)ncc3c2)C1         label 1

Can `CC(C)(O)[C@H]1CC[C@H](NC(=O)c2cnc3cc(N4CC(F)C4)ncc3c2)CC1` be said to have solubility at 4 h at or above 400 µg/mL?
label 0

Is it the case that CC(N[C@H]1CC[C@H](NC(=O)c2cnc3nc(C4CC4)ccc3c2)CC1)C(F)F (mixture of isomers) has solubility at 4 h reaching or exceeding 400 µg/mL?
label 1

# bool: solubility at 4 h of `C[C@H]1CCN1c1cc2ncc(C(=O)N[C@H]3CCNC3=O)cc2cn1` >= 400 µg/mL
label 1

// inclusive: solubility at 4 h at least 400 µg/mL? input: `CC(C)(O)[C@H]1CC[C@H](NC(=O)c2cnc3cc(OC(F)F)ccc3c2)CC1`
label 0

Quick check, solubility at 4 h >= 400 µg/mL? `CC(C)(O)[C@H]1C[C@H](NC(=O)c2cnc3nc(C4CC4)c(Cl)cc3c2)C1`
label 0

###

- measured target: Hematopoietic prostaglandin D synthase (Homo sapiens)
- Sequence (O60760 whole entry): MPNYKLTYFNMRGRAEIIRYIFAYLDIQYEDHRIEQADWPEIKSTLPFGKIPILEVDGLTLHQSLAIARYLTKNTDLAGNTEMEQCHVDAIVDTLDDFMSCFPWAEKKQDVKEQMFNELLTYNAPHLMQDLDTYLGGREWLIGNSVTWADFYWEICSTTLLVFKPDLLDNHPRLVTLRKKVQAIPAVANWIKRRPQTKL
- test description: Inhibition of human H-PGDS expressed in Escherichia coli BL21 DE3 cells assessed as reduction in PGD2 production using PGH2 as substrate by RapidFire High Throughput Mass spectrometry
metric: IC50 (nM)
One number for each entry, in nM.

Here are 8 compounds together with their reported answers.
In [3]: df
Out[3]:
                                   compound  recorded_result
0  CC(C)(O)[C@H]1CC[C@H](NC(=O)c2cnc3nc(NCC(F)(F)F)ccc3c2)CC1              690
1  CC(C)(O)[C@H]1CC2(C[C@H](NC(=O)c3cnc4nc(C5CC5)ccc4c3)C2)C1 (some centres not stated)              3.9
2  CC(C)(O)[C@]12C[C@@](NC(=O)c3cnc4cc(C5CC5)ncc4c3)(C1)C2               38
3  C[C@H]1CCN1c1nc2ncc(C(=O)N[C@H]3C[C@H](C(C)(C)O)C3)cc2cc1Cl              3.1
4  CC(C)(O)[C@H]1CC[C@H](NC(=O)c2cnc3nc(C4CCC4)ccc3c2)CC1               10
5  C[C@]1(O)C[C@@H](NC(=O)c2cnc3nc(N4CCC4)ccc3c2)C1              140
6  O=C(N[C@H]1CCNC1=O)c1cnc2nc(C3CC3)c(Cl)cc2c1              4.6
7  CC(C)c1ccc2cc(C(=O)N[C@H]3CC[C@H](C(C)(C)O)CC3)cnc2n1              8.5

Hey, can you go through the list below and give me IC50 for every item?
1. C[C@H]1CCN1c1cc2ncc(C(=O)N[C@H]3CC[C@H](C(C)(C)O)CC3)cc2cn1
2. C[C@H]1CCN1c1ccc2cc(C(=O)N[C@H]3CC[C@H](C(C)(C)O)CC3)cnc2n1
3. CC(C)(O)C1CC2(CC(NC(=O)c3cnc4nc(C5CC5)ccc4c3)C2)C1 (configuration not stated)

1: 4.8; 2: 4.4; 3: 4.9

Please give IC50, item by item, for the list that follows.
1. CC(C)(O)[C@H]1CC[C@H](NC(=O)c2cnc3cnccc3c2)CC1
2. CC(C)(O)[C@]12C[C@@](NC(=O)c3cnc4nc(C5CC5)ccc4c3)(C1)C2
3. COc1cnc2cc(C(=O)N[C@H]3CC[C@H](C(C)(C)O)CC3)cnc2c1
4. C[C@@H]1CCN1c1cc2ncc(C(=O)N[C@H]3CC[C@H](C(C)(C)O)CC3)cc2cn1
5. C[C@]1(O)C[C@@H](NC(=O)c2cnc3cc(N4CCC4)ncc3c2)C1
6. COc1nc2ncc(C(=O)N[C@H]3CC[C@H](C(C)(C)O)CC3)cc2cc1Cl
7. O=C(N[C@H]1CC[C@H](N[C@H](CO)C(F)(F)F)CC1)c1cnc2cc(C3CC3)ncc2c1

[7700, 17, 180, 160, 56, 6.6, 31]
